# credit: patent US20240000834A1

Molecular target: G12V antigen peptide presented on SW620-DPB cells (SW620 expressing HLA-DPB1*03:01) (human)
Test: cell-based or functional assay
READOUT_KIND: Emax relative to WT (%)
Write it as a number; the unit % goes unstated.

The binder listed as β50Q-T (TCR) TCR alpha: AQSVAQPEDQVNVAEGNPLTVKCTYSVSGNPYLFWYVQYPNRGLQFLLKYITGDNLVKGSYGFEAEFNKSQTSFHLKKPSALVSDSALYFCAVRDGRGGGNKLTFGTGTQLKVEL TCR beta: GITQSPKYLFRKEGQNVTLSCEQNLNHDAMYWYRQDPGQGLRLIYYSTIVNDFQKGDIAEGYSVSREKKESFPLTVTSAQKNPTAFYLCASSPGQRDNSPLHFGNGTRLTVT has a reported Emax relative to WT of 78

The binder listed as α52T-I (TCR) TCR alpha: AQSVAQPEDQVNVAEGNPLTVKCTYSVSGNPYLFWYVQYPNRGLQFLLKYIIGDNLVKGSYGFEAEFNKSQTSFHLKKPSALVSDSALYFCAVRDGRGGGNKLTFGTGTQLKVEL TCR beta: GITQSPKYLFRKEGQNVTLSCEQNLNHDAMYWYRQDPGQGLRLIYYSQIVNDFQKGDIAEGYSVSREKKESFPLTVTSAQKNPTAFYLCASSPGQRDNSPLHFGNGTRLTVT has a reported Emax relative to WT of 95
